- assay-protocol: Toxicity in mice
- recorded-conditions: mouse, in vivo, ip, 200 mg/kg
result-type: mortality (%)
Give your result in % as a bare value.

Task: Requested read-out: mortality. Entry: O=c1c(OC2CCCCC2)c(-c2ccc(O)c(O)c2)oc2cc(O)cc(O)c12
Result: 10

====

aldose reductase (Bos taurus, UniProt P16116) pIC50 data
Kindly note that pIC50 refers to -log10 of the concentration in mol/L and answer with the value alone.

Worked cases, pIC50 given:
CS(=O)(=O)Oc1c(-c2ccc(O)c(O)c2)oc2cc(O)cc(O)c2c1=O [COR 1988]	6.60
CCOc1c(-c2ccc(O)c(O)c2)oc2cc(O)ccc2c1=O [COR 1987, 3-Ethoxy-7,3',4'trihydroxyflavone]	6.30
Cc1ccc(S(=O)(=O)Oc2c(-c3ccc(O)c(O)c3)oc3cc(O)cc(O)c3c2=O)cc1 [COR 1990]	5.50

Task: # get_value(readout= pIC50, system= aldose reductase (Bos taurus, UniProt P16116)) for O=c1c(OC2CCCCC2)c(-c2ccc(O)c(O)c2)oc2cc(O)cc(O)c12 [COR 1983]
Result: 5.80
